# tested.on: AR protein (Homo sapiens, UniProt P10275)
# Construct: endogenous in cells; host or cells: VCaP
# Sequence (P10275 whole entry): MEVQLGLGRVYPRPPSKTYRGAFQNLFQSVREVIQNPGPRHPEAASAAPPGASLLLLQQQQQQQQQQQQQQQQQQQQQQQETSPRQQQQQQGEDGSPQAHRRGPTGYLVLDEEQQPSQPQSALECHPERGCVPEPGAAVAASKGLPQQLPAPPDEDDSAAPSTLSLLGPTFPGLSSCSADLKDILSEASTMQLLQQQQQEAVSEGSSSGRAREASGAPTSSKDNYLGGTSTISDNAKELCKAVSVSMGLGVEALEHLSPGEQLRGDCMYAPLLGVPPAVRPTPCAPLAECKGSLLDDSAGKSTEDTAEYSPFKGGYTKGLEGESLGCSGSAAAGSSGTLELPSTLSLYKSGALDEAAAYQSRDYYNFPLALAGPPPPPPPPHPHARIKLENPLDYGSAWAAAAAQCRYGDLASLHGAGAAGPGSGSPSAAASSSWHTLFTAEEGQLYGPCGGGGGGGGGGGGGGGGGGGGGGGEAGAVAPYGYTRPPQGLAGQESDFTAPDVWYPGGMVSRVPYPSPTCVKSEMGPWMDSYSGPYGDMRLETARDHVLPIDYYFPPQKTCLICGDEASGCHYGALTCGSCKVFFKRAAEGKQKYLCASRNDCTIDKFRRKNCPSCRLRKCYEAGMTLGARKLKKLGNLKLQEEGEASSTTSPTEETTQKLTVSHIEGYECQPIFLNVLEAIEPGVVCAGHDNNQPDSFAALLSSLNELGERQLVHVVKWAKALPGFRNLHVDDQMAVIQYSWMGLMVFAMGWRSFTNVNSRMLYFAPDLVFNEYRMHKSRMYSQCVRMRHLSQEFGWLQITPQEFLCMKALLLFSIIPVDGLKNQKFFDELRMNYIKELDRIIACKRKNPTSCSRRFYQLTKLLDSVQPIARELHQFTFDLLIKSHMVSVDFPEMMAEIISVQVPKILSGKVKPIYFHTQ
# assay.method.text: Western blotting of AR protein degradation in VCaP cells
# Assay type: cell-based
# recorded.conditions: 0.01 μM
# Procedure: The treated cells were lysed with RIPA buffer. […] GAPDH was used as a loading control. Bands were quantified with ImageJ software. The relative numbers of each band obtained from normalization with its corresponding GAPDH level were compared with Prism 8 software. The DC50 values were produced from Prism 8, and the DC90 values were calculated with an equation=Bottom+(Top−Bottom)/(1+10^((Log EC50−X)*HillSlope) based on DC50 and Hillslope values.
quantity: % AR protein degradation in VCaP Cells

| compound | quantity | recorded.result |
| --- | --- | --- |
| N#Cc1ccc(O[C@H]2CC[C@H](NC(=O)c3ccc(NCCCCCCCNc4ccc5c(c4)C(=O)N(C4CCC(=O)NC4=O)C5=O)cc3)CC2)cc1Cl (stereo partly drawn) | % AR protein degradation in VCaP Cells | 40% |
| N#Cc1ccc(N[C@H]2CC[C@H](NC(=O)c3ccc(N4CCC(N5CCN(c6ccc7c(c6)C(=O)N(C6CCC(=O)NC6=O)C7=O)CC5)CC4)cc3)CC2)cc1Cl (stereo partly drawn) | % AR protein degradation in VCaP Cells | 62% |
| CN(c1ccc(C#N)c(Cl)c1)[C@H]1CC[C@H](NC(=O)c2ccc(N3CCN(C4CCN(c5ccc6c(c5)C(=O)N(C5CCC(=O)NC5=O)C6=O)CC4)CC3)cc2)CC1 (stereo partly drawn) | % AR protein degradation in VCaP Cells | 99% |
| N#Cc1ccc(O[C@H]2CC[C@H](NC(=O)c3ccc(NCCCCCCCCNc4ccc5c(c4)C(=O)N(C4CCC(=O)NC4=O)C5=O)cc3)CC2)cc1Cl (stereo partly drawn) | % AR protein degradation in VCaP Cells | 43% |
| N#Cc1ccc(O[C@H]2CC[C@H](NC(=O)c3ccc(N4CCN(CC5CN(c6ccc7c(c6)C(=O)N(C6CCC(=O)NC6=O)C7=O)C5)CC4)cc3)CC2)cc1Cl (stereo partly drawn) | % AR protein degradation in VCaP Cells | 79% |

Give the reported % AR protein degradation in VCaP Cells for this compound. N#Cc1ccc(O[C@H]2CC[C@H](NC(=O)c3ccc(NCCCCCCCCCCCNc4ccc5c(c4)C(=O)N(C4CCC(=O)NC4=O)C5=O)cc3)CC2)cc1Cl (stereo partly drawn)
17%

State, in one line, measured % AR protein degradation in VCaP Cells of N#Cc1ccc(O[C@H]2CC[C@H](NC(=O)c3ccc(NCCCCCNc4ccc5c(c4)C(=O)N(C4CCC(=O)NC4=O)C5=O)cc3)CC2)cc1Cl (stereo partly drawn)
82%

Look up and state reported % AR protein degradation in VCaP Cells for N#Cc1ccc(O[C@H]2CC[C@H](NC(=O)c3ccc(NCCCCCCCCCNc4ccc5c(c4)C(=O)N(C4CCC(=O)NC4=O)C5=O)cc3)CC2)cc1Cl (stereo partly drawn)
35%

For the compound N#Cc1ccc(O[C@H]2CC[C@H](NC(=O)c3ccc(N4CCN(CCNc5ccc6c(c5)C(=O)N(C5CCC(=O)NC5=O)C6=O)CC4)cc3)CC2)cc1Cl (stereo partly drawn) , give its reported % AR protein degradation in VCaP Cells.
32%

Name the recorded % AR protein degradation in VCaP Cells of the compound listed here: CN(c1ccc(C#N)c(Cl)c1)[C@H]1CC[C@H](NC(=O)c2ccc(N3CC(CN4CCN(c5ccc6c(c5)C(=O)N(C5CCC(=O)NC5=O)C6=O)CC4)C3)cc2)CC1 (stereo partly drawn)
91%

Using the record for CN(c1ccc(C#N)c(Cl)c1)[C@H]1CC[C@H](NC(=O)c2ccc(N3CCN(CC4CCN(c5ccc6c(c5)C(=O)N(C5CCC(=O)NC5=O)C6=O)CC4)CC3)cc2)CC1 (stereo partly drawn) , state its measured % AR protein degradation in VCaP Cells.
78%

Identify % AR protein degradation in VCaP Cells associated with the compound N#Cc1ccc(O[C@H]2CC[C@H](NC(=O)c3ccc(NCCCCCCCCCCNc4ccc5c(c4)C(=O)N(C4CCC(=O)NC4=O)C5=O)cc3)CC2)cc1Cl (stereo partly drawn)
−9%

Retrieve % AR protein degradation in VCaP Cells measured for N#Cc1ccc(O[C@H]2CC[C@H](NC(=O)c3ccc(N4CCN(CCCCNc5ccc6c(c5)C(=O)N(C5CCC(=O)NC5=O)C6=O)CC4)cc3)CC2)cc1Cl (stereo partly drawn) and print it.
60%

Look up and state reported % AR protein degradation in VCaP Cells for CC1(C)C(=O)N(c2ccc(C#N)c(C(F)(F)F)c2)C(=S)N1c1ccc(C(=O)N2CCN(C3CCN(c4ccc5c(c4)C(=O)N(C4CCC(=O)NC4=O)C5=O)CC3)CC2)c(F)c1 (stereo not drawn)
6%

Supply % AR protein degradation in VCaP Cells value. Item: N#Cc1ccc(O[C@H]2CCC[C@H](NC(=O)c3ccc(N4CCC(N5CCN(c6ccc7c(c6)C(=O)N(C6CCC(=O)NC6=O)C7=O)CC5)CC4)cc3)CCC2)cc1Cl (stereo partly drawn)
21%
